abundance fitness values, listed per item
B1: Ventral anterior homeobox 1, residues 102 to 157; numbered along this chain, Q5SQQ9 (parent)
chain: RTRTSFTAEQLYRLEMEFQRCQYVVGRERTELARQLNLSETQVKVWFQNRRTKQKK

Variants of: B1
assay-overview: abundance fitness (aPCA) (normalised: wild type 0, dead -1); higher = more abundant; growth selection in yeast, the domain comes from the species named
condition-notes: Homo sapiens

[
  {
    "change": "R51K",
    "abundance fitness": -0.365
  },
  {
    "change": "Y12M",
    "abundance fitness": 0.102
  },
  {
    "change": "R13I",
    "abundance fitness": 0.092
  },
  {
    "change": "T41P",
    "abundance fitness": -0.152
  },
  {
    "change": "E31D",
    "abundance fitness": -0.234
  },
  {
    "change": "L38A",
    "abundance fitness": -0.253
  },
  {
    "change": "S39P",
    "abundance fitness": 0.033
  },
  {
    "change": "E17H",
    "abundance fitness": -0.044
  },
  {
    "change": "Q22I",
    "abundance fitness": -0.38
  },
  {
    "change": "E31L",
    "abundance fitness": -0.5
  },
  {
    "change": "G26I",
    "abundance fitness": -0.63
  },
  {
    "change": "F47P",
    "abundance fitness": -0.836
  },
  {
    "change": "L11N",
    "abundance fitness": 0.18
  },
  {
    "change": "E17G",
    "abundance fitness": -0.679
  },
  {
    "change": "R34C",
    "abundance fitness": -0.395
  },
  {
    "change": "Q54Y",
    "abundance fitness": -0.317
  },
  {
    "change": "F6H",
    "abundance fitness": -0.283
  },
  {
    "change": "E15C",
    "abundance fitness": -0.803
  },
  {
    "change": "F18Y",
    "abundance fitness": -0.124
  },
  {
    "change": "T7N",
    "abundance fitness": -0.105
  },
  {
    "change": "C21P",
    "abundance fitness": -0.231
  },
  {
    "change": "Q19W",
    "abundance fitness": -0.213
  },
  {
    "change": "T52I",
    "abundance fitness": -0.358
  },
  {
    "change": "T41A",
    "abundance fitness": 0.032
  },
  {
    "change": "Y23E",
    "abundance fitness": 0.012
  },
  {
    "change": "R27I",
    "abundance fitness": 0.19
  },
  {
    "change": "F47M",
    "abundance fitness": -0.228
  },
  {
    "change": "K44L",
    "abundance fitness": -0.175
  },
  {
    "change": "T30N",
    "abundance fitness": -0.097
  },
  {
    "change": "R13V",
    "abundance fitness": -0.311
  },
  {
    "change": "E31V",
    "abundance fitness": -0.315
  },
  {
    "change": "R50P",
    "abundance fitness": -1.02
  },
  {
    "change": "A33P",
    "abundance fitness": -0.997
  },
  {
    "change": "E28W",
    "abundance fitness": -0.483
  },
  {
    "change": "M16T",
    "abundance fitness": -0.076
  },
  {
    "change": "T41K",
    "abundance fitness": -0.381
  },
  {
    "change": "Y23G",
    "abundance fitness": -0.21
  },
  {
    "change": "F18V",
    "abundance fitness": -0.887
  },
  {
    "change": "Q42S",
    "abundance fitness": -0.364
  },
  {
    "change": "T4I",
    "abundance fitness": -0.193
  },
  {
    "change": "S5H",
    "abundance fitness": -0.224
  },
  {
    "change": "T4E",
    "abundance fitness": 0.169
  },
  {
    "change": "K44C",
    "abundance fitness": -0.069
  },
  {
    "change": "R50L",
    "abundance fitness": -0.925
  },
  {
    "change": "T30A",
    "abundance fitness": -0.102
  },
  {
    "change": "N37C",
    "abundance fitness": -0.037
  },
  {
    "change": "T4A",
    "abundance fitness": -0.188
  },
  {
    "change": "C21T",
    "abundance fitness": -0.019
  },
  {
    "change": "V24F",
    "abundance fitness": -0.408
  },
  {
    "change": "R51C",
    "abundance fitness": -0.08
  },
  {
    "change": "V24H",
    "abundance fitness": -0.307
  },
  {
    "change": "Y23V",
    "abundance fitness": -0.045
  },
  {
    "change": "L14C",
    "abundance fitness": -0.518
  },
  {
    "change": "Q48I",
    "abundance fitness": -0.284
  },
  {
    "change": "F47S",
    "abundance fitness": -0.762
  },
  {
    "change": "A8Q",
    "abundance fitness": -0.301
  },
  {
    "change": "M16V",
    "abundance fitness": -0.09
  },
  {
    "change": "C21D",
    "abundance fitness": 0.16
  },
  {
    "change": "C21Y",
    "abundance fitness": -0.404
  },
  {
    "change": "F18I",
    "abundance fitness": -0.689
  },
  {
    "change": "R27K",
    "abundance fitness": -0.045
  },
  {
    "change": "R50M",
    "abundance fitness": -0.034
  },
  {
    "change": "Q42M",
    "abundance fitness": -0.252
  },
  {
    "change": "R3P",
    "abundance fitness": 0.164
  },
  {
    "change": "V25E",
    "abundance fitness": 0.204
  },
  {
    "change": "V25N",
    "abundance fitness": -0.326
  },
  {
    "change": "T2H",
    "abundance fitness": -0.38
  },
  {
    "change": "V24T",
    "abundance fitness": -0.074
  },
  {
    "change": "G26K",
    "abundance fitness": -0.15
  },
  {
    "change": "Y23H",
    "abundance fitness": 0.04
  },
  {
    "change": "L38H",
    "abundance fitness": -0.854
  },
  {
    "change": "T41Q",
    "abundance fitness": 0.227
  },
  {
    "change": "Y23C",
    "abundance fitness": -0.145
  },
  {
    "change": "R3A",
    "abundance fitness": 0.002
  },
  {
    "change": "Q42D",
    "abundance fitness": 0.028
  },
  {
    "change": "L38C",
    "abundance fitness": -0.186
  },
  {
    "change": "Q22W",
    "abundance fitness": -0.383
  },
  {
    "change": "K53D",
    "abundance fitness": 0.209
  },
  {
    "change": "K44R",
    "abundance fitness": -0.22
  },
  {
    "change": "Q42Y",
    "abundance fitness": 0.053
  },
  {
    "change": "M16D",
    "abundance fitness": 0.075
  },
  {
    "change": "E15M",
    "abundance fitness": -0.982
  },
  {
    "change": "V25K",
    "abundance fitness": -0.18
  },
  {
    "change": "T30M",
    "abundance fitness": -0.225
  },
  {
    "change": "Q54H",
    "abundance fitness": -0.149
  },
  {
    "change": "R27N",
    "abundance fitness": 0.156
  },
  {
    "change": "M16G",
    "abundance fitness": -0.109
  },
  {
    "change": "T4R",
    "abundance fitness": -0.35
  },
  {
    "change": "E28M",
    "abundance fitness": -0.446
  },
  {
    "change": "R50H",
    "abundance fitness": -0.624
  },
  {
    "change": "R51G",
    "abundance fitness": -0.16
  }
]
